# measurement notes: plasma protein binding by equilibrium dialysis, human
# Format: in vitro ADME
# experimental context: equilibrium dialysis 5 h, mean ± SD, n = 6, read-out: Plasma protein binding (converted)
endpoint: fraction unbound at 5 h, 1 μg/mL
The answer should be written as a number, with no unit following it.

What the record says about Cc1cc(F)c2[nH]c(=O)n(C3CCN(C4CCOCC4)CC3)c2c1 [GSK1034702] : fraction unbound at 5 h, 1 μg/mL is 0.442

###

# measurement notes: [11C]GSK1034702 PET brain distribution and kinetics in healthy male humans
# Assay type: in vivo
# experimental context: human, brain striatum, po, Striatum, Subject 2 Scan 2 (post dose, 5 mg oral), read-out: V T
endpoint: Kp
The answer should be written as a number, with no unit following it.

What the record says about [11CH3]c1cc(F)c2[nH]c(=O)n(C3CCN(C4CCOCC4)CC3)c2c1 [[^11C]GSK1034702] : Kp is 5.29

###

# measurement notes: [11C]GSK1034702 PET brain distribution and kinetics in anaesthetised baboons
# Assay type: in vivo, Papio anubis
# experimental context: female, baboon (Papio anubis), hippocampus, intravenous, Hippocampus; Subject A Exam 1; baboon; read-out: Regional V T
endpoint: Kp
The answer should be written as a number, with no unit following it.

What the record says about [11CH3]c1cc(F)c2[nH]c(=O)n(C3CCN(C4CCOCC4)CC3)c2c1 [[^11C]GSK1034702] : Kp is 4.78

###

# measurement notes: [11C]GSK1034702 PET brain distribution and kinetics in healthy male humans
# Type: in vivo
# experimental context: male, human, cortex, intravenous, read-out: VT measured in the human cortex
endpoint: Kp
The answer should be written as a number, with no unit following it.

What the record says about "Cc1cc(F)c2[nH]c(=O)n(C3CCN(C4CCOCC4)CC3)c2c1" : Kp is 4.9

###

# measurement notes: [11C]GSK1034702 PET brain distribution and kinetics in anaesthetised baboons
# Type: in vivo, Papio anubis
# experimental context: male, baboon (Papio anubis), striatum, intravenous, Striatum; Subject B Exam 1; baboon; read-out: Regional V T
endpoint: Kp
The answer should be written as a number, with no unit following it.

What the record says about [11CH3]c1cc(F)c2[nH]c(=O)n(C3CCN(C4CCOCC4)CC3)c2c1 [[^11C]GSK1034702] : Kp is 3.21

###

# measurement notes: [11C]GSK1034702 PET brain distribution and kinetics in healthy male humans
# Type: in vivo
# experimental context: human, cerebellum, po, Cerebellum, Subject 4 Scan 2 (post dose, 5 mg oral), read-out: V T
endpoint: Kp
The answer should be written as a number, with no unit following it.

What the record says about [11CH3]c1cc(F)c2[nH]c(=O)n(C3CCN(C4CCOCC4)CC3)c2c1 [[^11C]GSK1034702] : Kp is 4.56

###

# measurement notes: brain tissue binding by equilibrium dialysis, rat
# Assay type: in vitro ADME
# experimental context: brain tissue, Rat (LH), equilibrium dialysis 5 h, read-out: f ND (brain-free fraction)
endpoint: fraction unbound at 5 h, 1 μg/mL
The answer should be written as a number, with no unit following it.

What the record says about "Cc1cc(F)c2[nH]c(=O)n(C3CCN(C4CCOCC4)CC3)c2c1" : fraction unbound at 5 h, 1 μg/mL is 0.15
